Catalogue of compounds with associated z-score
# PROCEDURE_DETAILS: A549 cell viability effects, profiling panel, calcein-AM fluorescence, 48 h, basal (AID 1162); also: test concentration not given here
# RECORDED_CONDITIONS: higher = more signal
I'd appreciate a reply containing only the number, no unit.

[[record]]
smiles_text = "COc1cc(Cc2cc3c(c(CCc4ccccc4)n2)[Si](C(C)C)(C(C)C)OC3)cc(OC)c1OC"
measured_property = "z-score"
numeric_result = 0.557

[[record]]
smiles_text = "COc1cc2c(cc1OC)CN(C(=O)[C@H]1[C@@H]3C(=O)O[C@@H](c4ccccc4)[C@@H](c4ccccc4)N3[C@@H](c3ccccc3OCCO)[C@]13C(=O)Nc1ccc(C#CC4(O)CCCCCC4)cc13)CC2"
measured_property = "z-score"
numeric_result = 0.434


Query block: Need z-score, item `NC(=O)NCC#Cc1ccc2c(c1)[C@]1(C(=O)N2)[C@H](C(=O)N2CCCCCCC2)[C@H]2C(=O)O[C@H](c3ccccc3)[C@H](c3ccccc3)N2[C@@H]1c1ccccc1OCCO`
Result block: -0.21

###

# PROCEDURE_DETAILS: basal RPMI8226 viability, no added stimulus, profiling panel, cell-based, calcein-AM fluorescence, 48 h, PK04 Diversity Set (AID 1166);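 also: cells grown under basal conditions without added stimulus; test concentration not given here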
# RECORDED_CONDITIONS: RPMI8226 myeloma viability, higher = more signal
Catalogue of molecules with associated z-score
I'd appreciate a reply containing only the number, no unit.

Query block: Need z-score, item C[C@@H]1NC(=O)[C@H](Cc2ccccc2)NC(=O)[C@@]23C(=O)N[C@@H](Cc4ccccc4)C2[C@H](C)[C@@]2(C)O[C@H]2C3/C=C/C/C=C\CNC1=O (stereo partly drawn)
Result block: -1.65

###

# PROCEDURE_DETAILS: small-molecule binders of probe aLefty1, primary screen, biochemical, small-molecule microarray, 635/667 nm fluorescence (AID 1153);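 also: score merges spot fluorescence with signal-to-noise ratio from the scanned slide images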
# RECORDED_CONDITIONS: higher = more signal
We use 0.003 as the dividing line for composite z-score: on or above the line is 1, below is -1.

Query block: Does the reported composite z-score for `C[C@@H]1C=CCC(=O)OC[C@H]2O[C@@H](C=C[C@@H]2O)[C@H](C)C=CCC(=O)OC[C@H]2O[C@H]1C=C[C@@H]2O` fall at or above the 0.003 mark?
Result block: 1

Query block: What about this compound? `CO[C@H]1O[C@H](CO)[C@@H](OC(=O)CCc2ccccc2)[C@@H]2OC(=O)[C@H](Cc3cccc(Br)c3)C/C=C/C[C@@H](Cc3cccc(Br)c3)C(=O)O[C@@H]12`
Result block: -1

Query block: What about this compound? `C=C(COC)/C(=C/C[C@@H](OC(C)=O)c1cccc(OCCO)c1)c1cc(C(=O)OC)ccc1OC`
Result block: 1

Query block: What about this compound? `NC(=O)NCC#Cc1ccc2c(c1)[C@]1(C(=O)N2)[C@H](c2ccccc2OCCO)N2[C@H](c3ccccc3)[C@H](c3ccccc3)OC(=O)[C@H]2[C@@H]1C(=O)N1CCN(c2ncccn2)CC1`
Result block: 1

Query block: What about this compound? `COC(=O)[C@H]1[C@@H]2COc3ccccc3[C@H]2N[C@H]1C(=O)OC`
Result block: -1

Query block: What about this compound? `C=C(C(=O)CC[C@H](OC(=O)c1ccccc1-c1ccccc1C(=O)O)c1ccc(CO)o1)C(C)C`
Result block: -1

Query block: What about this compound? `CCCC=C(CCC)[C@@H](NS(=O)(=O)c1cccc(C(F)(F)F)c1)c1ccc(C(=O)OC)cc1`
Result block: 1

Where these numbers come from: PubChem BioAssay
